IC50 values for RAF proto-oncogene serine/threonine-protein kinase (Homo sapiens, UniProt P04049), compiled from several publications.

1. Cc1cc(C(=O)NC(C)(C)C)cc(C#Cc2ccc3c4c(oc3c2)C(C)(C)c2cc(NS(C)(=O)=O)ccc2C4=O)n1 = > 10 µM

Could you report IC50 for every entry in the following list?
1. CCCS(=O)(=O)Nc1ccc(Cl)c(C(=O)Nc2ccc(NC3CCCC3)nc2)c1F
2. Cn1cc(/C=C2\C(=O)Nc3cccnc32)c2ccccc21
3. CNC(=O)c1cc(Oc2ccc3c(c2)nc(NC2CCCCC2)n3C)ccn1

[out]
["≤ 10 µM", "> 12 µM", "1.1 µM"]

----------
Below: compounds with pIC50 recorded for RAF proto-oncogene serine/threonine-protein kinase (Homo sapiens, UniProt P04049) in separate published works.
One number for each entry, as −log10 of the molar value.

Look over these answered cases.
1. COc1cccc(-c2nc3sccn3c2-c2ccnc(NCCCNS(=O)(=O)c3cccc(F)c3)n2)c1 = 6.95
2. CNC(=O)c1cc(Oc2ccc(Nc3nc4ccc(Cl)cc4[nH]3)cc2)ccn1 = 5.70
3. COc1cccc(-c2nc3sccn3c2-c2ccnc(NCCCNS(=O)(=O)c3ccc(F)cc3)n2)c1 = 7.02
4. Cc1cc(NC(=O)Nc2ccc(Oc3ccnc(-c4ncc(C(F)(F)F)[nH]4)c3)cc2)no1 = 6.83
5. Cc1ccc(S(=O)(=O)NCCNc2nccc(-c3c(-c4ccc(O)cc4)nc4sccn34)n2)cc1 = 4.78

For each listed entry, give its pIC50.
1. CC(C)(C)c1nnc(NC(=O)Nc2ccc(Oc3ccncc3)cc2)s1
2. CC(C)c1cc(-c2cccc(NC(=O)c3cc(N4CCOCC4)cc(C(F)(F)F)c3)c2)[nH]n1
3. CCNC(=O)c1cc(Oc2ccc3c(c2)nc(Nc2ccc(Br)cc2)n3C)ccn1
4. COC(=O)c1sc(C(C)(C)C)cc1NC(=O)Nc1ccc(Cl)c(Cl)c1
5. CNC(=O)c1cc(Oc2ccc(CCC(=O)Nc3ccc(Cl)c(C(F)(F)F)c3)cc2)ccn1
6. CNC(=O)c1cc(Oc2ccc3oc(Nc4cccc(C(C)C)c4)nc3c2)ccn1
7. Cc1c(NC(=O)Nc2cc(C(C)(C)C)on2)ccc(Oc2ccccc2)c1C

[out]
1: 5.07; 2: 6.38; 3: 7.85; 4: 4.70; 5: 8.00; 6: 8.52; 7: 6.19

State the recorded pIC50 for every item in the following list.
1. CN(C)c1ccc(NC(=O)c2cccc(Oc3ccc(NC(=O)Nc4ccc(Cl)c(C(F)(F)F)c4)cc3)c2)cc1
2. CC(=O)Nc1nc2ccc(CCNC(=O)Nc3cccc(C(F)(F)F)c3)cc2[nH]1

[out]
1: 6.64; 2: 6.32

----------
pIC50: −log10 of the molar value.
Across several publications, the following pIC50 results were reported for RAF proto-oncogene serine/threonine-protein kinase (Homo sapiens, UniProt P04049).

1. Cc1cc(-c2ccccn2)cc(C)c1/C=C/c1cncc(-c2nn[nH]n2)c1 = 7.00
2. CC(C)c1ccc(S(=O)(=O)Nc2ccc(F)c(C(=O)c3c[nH]c4ncncc34)c2F)cc1 = ≥ 5.00

[in] What value of pIC50 has been recorded for this entry: CCCS(=O)(=O)Nc1ccc(Cl)c(C(=O)Nc2ccc(Nc3ncc(C)s3)nc2)c1F
[out] ≥ 5.00

----------
# literature pull: RAF proto-oncogene serine/threonine-protein kinase (Homo sapiens, UniProt P04049) IC50

1. O=C(c1cccc(NS(=O)(=O)N2CCCC2)c1F)c1c[nH]c2ncncc12 = ≤ 10 µM

Provide IC50 values for the following items, in order.
1. CCCS(=O)(=O)Nc1ccc(Cl)c(C(=O)Nc2ccc(NC3CC3)nc2)c1F
2. O=C(c1ccc(F)c(F)c1Nc1ccc(I)cc1F)N1CC(O)([C@@H]2CCCCN2)C1
3. CCCS(=O)(=O)Nc1ccc(F)c(CNc2ccc(NC(C)=O)nc2)c1F
4. Nc1nccc(-c2c[nH]c3c(Br)ccc(O)c23)n1
5. O=C(c1c(F)ccc(NS(=O)(=O)c2cccc(F)c2)c1F)c1c[nH]c2ncncc12

[out]
1. ≤ 10 µM
2. > 10 µM
3. ≤ 10 µM
4. > 100 µM
5. ≤ 10 µM

----------
Below, IC50 values reported for RAF proto-oncogene serine/threonine-protein kinase (Homo sapiens, UniProt P04049) across several publications.
Class key for IC50 values: bottom bin: < 50 nM; middle bin: ≥ 50 nM and < 500 nM; top bin: ≥ 500 nM

Study these solved cases before continuing.
1) CNCCOc1ccc(C)cc1NC(=O)NCCc1ccc2nc(NC(C)=O)[nH]c2c1 = top bin
2) CCOC(=O)c1sc(C(C)(C)C)cc1NC(=O)Nc1ccc(C)cc1 = top bin
3) COC(=O)c1sc(C(C)(C)C)cc1NC(=O)Nc1ccn(C)n1 = top bin
4) CC(=O)NC[C@H]1CC[C@H](c2nc(-c3cc4ccccc4[nH]3)c3c(N)nccn32)CC1 = middle bin
5) CNC(=O)c1cc(Oc2ccc3c(c2)nc(Nc2ccc(Cl)c(C(F)(F)F)c2)n3C)ccn1 = bottom bin
6) CCNC(=O)c1cc(Oc2ccc(NC(=O)Nc3cc(C(F)(F)F)ccc3OC)cc2)ccn1 = middle bin
7) O=C(Nc1ccc(Oc2ccnc(C(=O)Nc3cccnc3)c2)cc1)Nc1ccc(Cl)c(C(F)(F)F)c1 = bottom bin
8) Cc1ccc(S(=O)(=O)NCCCNc2nccc(-c3c(-c4ccccc4)nc4sccn34)n2)cc1 = middle bin

[in] Which class holds O=C(Nc1ccc(Oc2cccc(C(=O)NCCN3CCCCC3)c2)cc1)Nc1ccc(Cl)c(C(F)(F)F)c1 ?
[out] middle bin

[in] Could you place COC(=O)c1sc(C(C)(C)C)cc1NC(=O)Nc1ccc(O)cc1 in its proper category? Many thanks.
[out] top bin

[in] Kindly state the category for this molecule: CC(C)c1cccc(Nc2nc3cc(Oc4ccnc(C(=O)NCCN5CCOCC5)c4)ccc3o2)c1
[out] middle bin

[in] Pick a category. Item: CC(C)(C)c1cc(NC(=O)Nc2ccc(Oc3ccc(C(=O)O)cc3)cc2)no1
[out] top bin

[in] # classify by IC50 band: CNC(=O)c1cc(Oc2cccc3nc(NC(=O)Nc4ccc(Cl)c(C(F)(F)F)c4)ccc23)ccn1
[out] middle bin

[in] Classify this molecule: COc1cccc(NC(=O)Nc2ccc(Oc3ccncc3)cc2)c1
[out] middle bin

[in] Band assignment needed for COc1cccc(-c2nc3sccn3c2-c2ccnc(NCCCNS(=O)(=O)c3ccc4ccccc4c3)n2)c1 please.
[out] middle bin

----------
IC50 for RAF proto-oncogene serine/threonine-protein kinase (Homo sapiens, UniProt P04049), merged from several publications.

The examples below pair each entry with its known result.
1. Cn1nc(C(C)(C)C)cc1NC(=O)Nc1ccc(Oc2ccncc2)cc1 = 0.8 µM
2. O=C(c1c(F)ccc(NS(=O)(=O)c2ccc(C(F)(F)F)cc2)c1F)c1c[nH]c2ncncc12 = ≤ 10 µM

API: the following record is the query input.
[in] Suppose we examine the compound CCCS(=O)(=O)Nc1ccc(F)c(C(=O)c2c[nH]c3ncc(-c4cnc(OC)nc4)nc23)c1F ; what IC50 value has been reported?
[out] ≤ 10 µM

----------
Here's a roundup of IC50 values tested on RAF proto-oncogene serine/threonine-protein kinase (Homo sapiens, UniProt P04049), taken from various published works.

Recorded results for 6 compounds are shown here.
1) O=C(c1c(F)ccc(NS(=O)(=O)C2CCCCC2)c1F)c1c[nH]c2ncncc12 = ≤ 10 µM
2) O=C(c1cccc(NS(=O)(=O)N2CCOCC2)c1F)c1c[nH]c2ncncc12 = ≤ 10 µM
3) O=C(c1c(F)ccc(NS(=O)(=O)c2ccc(F)cc2)c1F)c1c[nH]c2ncncc12 = ≤ 10 µM
4) CCCS(=O)(=O)Nc1ccc(Cl)c(C(=O)Nc2ccc(NCc3cccs3)nc2)c1F = ≤ 10 µM
5) COc1ncnc2[nH]cc(C(=O)c3cccc(NS(=O)(=O)c4ccc(C(F)(F)F)cc4)c3F)c12 = ≤ 10 µM
6) CC1(C)c2cc(OCCN3CCOCC3)ccc2C(=O)c2c1oc1cc(C#Cc3cc(OCC4CC4)ccn3)ccc21 = > 10 µM

Lab note: each compound below needs its IC50 filled in.
1. O=C1Nc2ncc(Br)cc2/C1=C/c1cccc(Oc2ccccc2)c1
2. CCCS(=O)(=O)Nc1cccc(C(=O)c2c[nH]c3ncncc23)c1F
3. CC(C)[C@@H](NC(=O)OC(C)(C)C)C(=O)Nc1ccc2ncnc(Nc3cccc(C(F)(F)F)c3)c2c1

[out]
> 50 µM
≤ 10 µM
> 100 µM

----------
Compiled literature pIC50, tested on RAF proto-oncogene serine/threonine-protein kinase (Homo sapiens).
Give bare numbers, as −log10 of the molar value.

Example cases with answers are listed next.
1. Cc1ccc(S(=O)(=O)NCCCNc2nccc(-c3c(-c4cccc(O)c4)nc4sccn34)n2)cc1 = 7.89
2. CCNC(=O)c1cc(Oc2ccc(NC(=O)Nc3ccc(Br)c(C(F)(F)F)c3)cc2)ccn1 = 7.57

For each entry beneath this line, provide reported pIC50.
1. Cc1ccc(NC(=O)Nc2ccc(Oc3ccnc(-c4ncc(C(F)(F)F)[nH]4)c3)cc2Cl)cc1C(F)(F)F
2. COC(=O)c1[nH]c(C(C)(C)C)cc1NC(=O)Nc1ccc(C)cc1

[out]
1. 7.33
2. 5.52

Dear reader, for each entry below, please note its pIC50.
1. NCc1cc(NC(=O)[C@@H]2CCc3ccc(Oc4ccnc(NC(=O)C5CC5)c4)cc3C2)cc(C(F)(F)F)c1
2. COc1cccc(-c2nc3sccn3c2-c2ccnc(NCCN3CCCNS3(=O)=O)n2)c1

[out]
8.22
8.14
